# targetOfAssay: PDK1 (Homo sapiens (Human))
# Sequence (O15530 51-359): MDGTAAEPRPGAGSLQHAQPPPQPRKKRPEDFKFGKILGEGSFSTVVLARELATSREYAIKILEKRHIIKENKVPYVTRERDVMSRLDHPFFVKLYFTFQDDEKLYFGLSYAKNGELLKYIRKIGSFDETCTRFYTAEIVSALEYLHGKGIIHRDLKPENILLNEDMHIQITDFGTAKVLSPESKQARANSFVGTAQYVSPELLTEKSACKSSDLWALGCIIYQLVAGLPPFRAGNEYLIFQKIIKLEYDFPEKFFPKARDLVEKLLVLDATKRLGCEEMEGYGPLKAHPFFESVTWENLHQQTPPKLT
# experimentalDetails: PDK1 kinase assay (coupled PDK1/AKT/FAM-crosstide assay, IMAP fluorescence polarization)
# Assay type: biochemical
# experimentalContext: inhibition of phospo-PDK1 in vitro
pIC50: −log10 of the molar value. Counter-ions that a name gives are not always drawn.
measuredParameter: pIC50

{"columns": ["compound", "pIC50"],
 "data": [
  ["Nc1ncnc2ccc(-c3ccc(CNc4ncccc4C(=O)Nc4ccc(Cl)cc4)s3)cc12 [Example 3.48, (TFA salt)]", "6.00 to 7.00"]
]}

Q: Using the record for CC(C)Oc1cc(CNc2ncccc2C(=O)NCc2ccc(F)c(F)c2)cc(-c2c[nH]c3ncc(C(=O)NC4CC4)cc23)c1 [Example 4.1.3] , report its pIC50.
Ans: > 7.00

Q: Using the record for C[C@H](NC(=O)c1cc(C#N)cnc1NCc1ccc(-c2ccc3ncnc(N)c3c2)s1)c1ccc(F)cc1 [Example 8.8.3] , report its pIC50.
Ans: > 7.00

Q: Using the record for Nc1ncnc2ccc(-c3ccc(CNc4ncccc4C(=O)NCc4cc(F)ccc4F)s3)cc12 [Example 3.6] , report its pIC50.
Ans: 6.00 to 7.00
